- ASSAYED TARGET: Jak2 (UniProt O60674)
- Sequence (O60674 whole entry, looked up): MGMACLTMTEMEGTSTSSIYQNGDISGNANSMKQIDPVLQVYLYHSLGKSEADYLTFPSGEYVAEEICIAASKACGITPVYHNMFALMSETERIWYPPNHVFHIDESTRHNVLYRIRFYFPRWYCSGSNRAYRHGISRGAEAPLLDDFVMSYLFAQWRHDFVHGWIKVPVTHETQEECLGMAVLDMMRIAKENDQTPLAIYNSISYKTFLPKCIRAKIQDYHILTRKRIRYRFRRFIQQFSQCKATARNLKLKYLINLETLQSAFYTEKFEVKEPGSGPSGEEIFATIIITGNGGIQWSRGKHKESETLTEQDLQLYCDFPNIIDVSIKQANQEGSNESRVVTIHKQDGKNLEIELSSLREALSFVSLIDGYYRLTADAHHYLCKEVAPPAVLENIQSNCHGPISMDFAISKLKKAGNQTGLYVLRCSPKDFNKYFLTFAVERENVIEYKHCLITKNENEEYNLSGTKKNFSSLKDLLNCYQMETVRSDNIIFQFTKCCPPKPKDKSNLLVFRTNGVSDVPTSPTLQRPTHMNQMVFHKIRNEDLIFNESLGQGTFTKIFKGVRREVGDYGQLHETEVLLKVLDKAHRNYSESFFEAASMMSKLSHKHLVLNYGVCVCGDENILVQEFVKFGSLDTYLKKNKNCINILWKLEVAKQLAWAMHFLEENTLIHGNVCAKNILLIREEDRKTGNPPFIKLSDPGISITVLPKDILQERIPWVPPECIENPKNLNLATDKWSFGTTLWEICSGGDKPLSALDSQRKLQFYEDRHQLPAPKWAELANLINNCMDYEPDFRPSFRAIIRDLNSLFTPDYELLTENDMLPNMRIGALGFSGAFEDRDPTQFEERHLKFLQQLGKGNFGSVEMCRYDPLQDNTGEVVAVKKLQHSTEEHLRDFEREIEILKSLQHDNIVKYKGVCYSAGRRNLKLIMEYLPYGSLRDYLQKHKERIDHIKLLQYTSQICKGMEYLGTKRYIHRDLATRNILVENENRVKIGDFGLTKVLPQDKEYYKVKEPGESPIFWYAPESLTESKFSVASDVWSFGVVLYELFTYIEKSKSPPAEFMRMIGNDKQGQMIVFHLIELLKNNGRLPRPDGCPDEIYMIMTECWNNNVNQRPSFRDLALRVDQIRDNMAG
- METHOD SUMMARY: phosphorylation enrichment, bacterial display (enrichment ratio); higher = better substrate or ligand; peptides without Tyr show the background;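 note: 11-residue human phosphosite peptides and single-mutation variants displayed on the E. coli surface, counted by deep sequencing, each peptide's frequency after selection divided by its frequency in the unselected input library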;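 note: frequency after pTyr selection over input frequency; kinase dosed for 20-30% of maximal phosphorylation in three min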
MEASURED ATTRIBUTE: phosphorylation enrichment
// response body must contain only the number

The following sequences have reported results that may help.
| SEQUENCE TEXT | MEASURED ATTRIBUTE | MEASURED NUMBER |
| --- | --- | --- |
| SEEVNYATLTF [CLEC12B_Y7_T6N] | phosphorylation enrichment | 1.12 |
| HVSISYDIPLT [GAB1_Y307_P311L] | phosphorylation enrichment | 1.86 |
| CENCHYPILPL [LCK_Y25_V28L] | phosphorylation enrichment | 0.718 |
| HCHEGYVLHGA [SVEP1_Y2921_I2922V] | phosphorylation enrichment | 0.943 |
| RGVTRYIYNRE [HLA-DQB1_Y62_Y58G] | phosphorylation enrichment | 1.25 |

Task: What measured phosphorylation enrichment goes with LSSNLYYRWLT [CNGA3_Y168_P163L] ?
Result: 13.4

Task: // next record LPHVIYCRLWC [SMAD2_Y128_R133C]
Result: 1.95

Task: // next record KAIMTYVFSFF [ACTN4_Y260_S262F_YF]
Result: 0.698

Task: // next record IVFTSYVLTIL [TAS2R16_Y239_F240V]
Result: 1.55
